- Test system: HL-60 cells
- experimentalDetails: Growth inhibition of HL-60 cells
- Format: cell-based
- statedConditions: FIG. 8; YA and YB 10^-7 M, others 10^-6 M
experimentalEndpoint: inhibition of growth of HL-60 cells

[[record]]
mol = "C=C1/C(=C\\C=C2/CCC[C@]3(C)[C@@H]([C@@H](C)CSc4cccc(C(C)(C)O)c4)CC[C@@H]23)C[C@@H](O)C[C@@H]1CO"
reportedresult = "more modest effect"

[[record]]
mol = "C=C1/C(=C\\C=C2/CCC[C@]3(C)[C@@H]([C@@H](C)COCCCC(C)(C)O)CC[C@@H]23)C[C@@H](O)C[C@@H]1CO"
reportedresult = "more modest effect"

